Consider the following molecules; for each one, report its MIC.
Tested on: Pseudomonas aeruginosa
testName: Antibacterial activity against Pseudomonas aeruginosa ATCC 27853 incubated for 24 hrs by CLSI protocol based broth microdilution method
Assay type: functional
testContext: ATCC 27853, 24 h

The following molecules each have a reported value; give each one's MIC.
1. NC(=O)c1c(F)ccc(OCc2nn(-c3cccc(Cl)c3)c(=O)o2)c1F
2. NC(=O)c1c(F)ccc(OCc2nn(-c3ccc(Cl)cc3)c(=O)o2)c1F
3. CC(=O)NC[C@H]1CN(c2ccc(N3CCOCC3)c(F)c2)C(=O)O1
4. CC(C)(C)c1ccc(Cn2nc(COc3ccc(F)c(C(N)=O)c3F)oc2=O)cc1
5. NC(=O)c1c(F)ccc(OCc2nn(-c3ccc(Br)cc3)c(=O)[nH]2)c1F
6. CN(C)n1c(COc2ccc(F)c(C(N)=O)c2F)nn(-c2ccc(Br)cc2)c1=O
7. Cc1ccc(-n2nc(COc3ccc(F)c(C(N)=O)c3F)oc2=O)c(C)c1

Out:
1: > 64 µg/mL; 2: > 64 µg/mL; 3: > 64 µg/mL; 4: > 64 µg/mL; 5: > 64 µg/mL; 6: > 64 µg/mL; 7: > 64 µg/mL

Hello, the source for this data is ChEMBL document CHEMBL4387753, in case you need it.
